Experiment: Cell homogenate stability assay
Assay type: in vitro ADME
Conditions: human, HeLa cell homogenate
// reported half-life at 1 µM per item

CC[C@H](C)[C@@H]1NC(=O)[C@H](Cc2ccc(-c3ccccc3)cc2)NC(=O)[C@H](CC(C)C)NC(=O)[C@@H]2[C@@H](c3ccccc3)CCN2C(=O)[C@H](NC(=O)[C@H](CCCNC(=N)N)NC(=O)[C@H](CCCNC(=N)N)NC(=O)[C@H](CCCCN=[N+]=[N-])NC(C)=O)CSCSC[C@@H](C(=O)N[C@@H](CCCNC(=N)N)C(=O)N[C@@H](CCCNC(=N)N)C(N)=O)NC(=O)[C@H](C(C)C)NC(=O)[C@@H]2CCCN2C(=O)[C@H](CC(=O)O)NC(=O)[C@H](Cc2ccc(O)cc2)NC(=O)[C@H](CO)NC1=O [peptide 6]; > 6.2 h

Lookup result for CC[C@H](C)[C@@H]1NC(=O)[C@H](Cc2ccc(-c3ccccc3)cc2)NC(=O)[C@H](CC(C)C)NC(=O)[C@@H]2[C@@H](c3ccccc3)CCN2C(=O)[C@H](NC(=O)[C@@H](CCCNC(=N)N)NC(=O)[C@@H](CCCNC(=N)N)NC(=O)[C@H](CCCCN=[N+]=[N-])NC(C)=O)CSCSC[C@@H](C(=O)N[C@H](CCCNC(=N)N)C(=O)N[C@H](CCCNC(=N)N)C(N)=O)NC(=O)[C@H](C(C)C)NC(=O)[C@@H]2CCCN2C(=O)[C@H](CC(=O)O)NC(=O)[C@H](Cc2ccc(O)cc2)NC(=O)[C@](C)(CO)NC1=O [peptide 9] ; measured half-life at 1 µM: > 6.2 h
